Kindly state IC50 for each of the entries shown.
biological target: CRTH2 (KB8 cells) (Homo sapiens); construct: host or cells: KB8 cells (human CRTH2 expression cell); experiment: CRTH2 antagonist test (PGD2-induced intracellular calcium ion concentration increase in KB8 cells); type: cell-based; settings: PGD2 final concentration 100 nM, Fluo-4-AM fluorescence, read-out: antagonist activity (IC50 value, inhibition of calcium ion concentration increase)

CHEMICAL_STRUCTURE: O=C(O)Cc1cnc(C(=O)c2ccc(NC(=O)c3ccc(F)cc3Cl)cc2)c2ccccc12
RESULT: 500 to 1000 nM
//
CHEMICAL_STRUCTURE: O=C(O)Cc1cnc(C(=O)c2ccc(C(=O)Nc3ccc(Cl)cc3)cc2)c2ccccc12
RESULT: < 50 nM
//
CHEMICAL_STRUCTURE: O=C(O)Cc1cnc(Cc2ccc(C(=O)NCCc3ccc(F)cc3Cl)cc2)c2ccccc12
RESULT: < 50 nM

Value sought for every listed molecule: IC50.
1. O=C(O)Cc1cnc(C(=O)c2ccc(NC(=O)c3cc(Cl)ccc3Cl)cc2)c2ccccc12
2. C=Cc1ccc(C(=O)Nc2ccc(C(=O)c3ncc(CC(=O)O)c4ccccc34)cc2)cc1
3. Cc1ccc(CCNC(=O)c2ccc(Cc3ncc(CC(=O)O)c4ccccc34)cc2)c(C)c1
4. O=C(O)Cc1cnc(Cc2ccc(C(=O)NCCc3ccc4c(c3)CCCC4)cc2)c2ccccc12
5. O=C(O)Cc1cnc(C(=O)c2ccc(NC(=O)c3cc4ccccc4cn3)cc2)c2ccccc12
6. Cc1cccc(CCNC(=O)c2ccc(Cc3ncc(CC(=O)O)c4ccccc34)cc2)c1

**Result**
1. 50 to 500 nM
2. < 50 nM
3. < 50 nM
4. < 50 nM
5. < 50 nM
6. < 50 nM

Value sought for every listed molecule: IC50.
1. CC(C)Oc1ccc(CCNC(=O)c2ccc(Cc3ncc(CC(=O)O)c4ccccc34)cc2)cc1
2. O=C(O)Cc1cnc(C(=O)c2ccc(NC(=O)c3c[nH]c4ncccc34)cc2)c2ccccc12
3. Cc1ccccc1CCNC(=O)c1ccc(Cc2ncc(CC(=O)O)c3ccccc23)cc1
4. Cc1ccc(C)c(CCNC(=O)c2ccc(Cc3ncc(CC(=O)O)c4ccccc34)cc2)c1

**Result**
1: < 50 nM; 2: 50 to 500 nM; 3: < 50 nM; 4: 50 to 500 nM

Value sought for every listed molecule: IC50.
1. CC(C)(C)c1ccc(C(=O)Nc2ccc(C(=O)c3ncc(CC(=O)O)c4ccccc34)cc2)cc1
2. O=C(O)Cc1cnc(C(=O)c2ccc(NC(=O)c3ccc4occc4c3)cc2)c2ccccc12
3. Cc1ccc(CCNC(=O)c2ccc(Cc3ncc(CC(=O)O)c4ccccc34)cc2)cc1C
4. O=C(O)Cc1cnc(C(=O)c2ccc(NC(=O)c3ccc(Cl)c(F)c3)cc2)c2ccccc12

**Result**
["< 50 nM", "< 50 nM", "50 to 500 nM", "< 50 nM"]

====

target: CRTH2 (KB8 cells) (Homo sapiens); construct: host or cells: KB8 cells (human CRTH2 expression cell); assay: CRTH2 antagonist test (PGD2-induced intracellular calcium ion concentration increase in KB8 cells); type: cell-based; conditions: PGD2 final concentration 100 nM, Fluo-4-AM fluorescence, read-out: antagonist activity (IC50 value, inhibition of calcium ion concentration increase)
pIC50: −log10 of the molar value.
Kindly state pIC50 for each of the entries shown.

Example compounds with recorded pIC50:
COMPOUND: COc1ccc(CCNC(=O)c2ccc(Cc3ncc(CC(=O)O)c4ccccc34)cc2)cc1OC [Example 189]
pIC50: ≤ 6.00
--
COMPOUND: O=C(O)Cc1cnc(C(=O)c2ccc(NC(=O)c3ccc(Br)cc3)cc2)c2ccccc12 [Example 32]
pIC50: > 7.30
--
COMPOUND: O=C(O)Cc1cnc(Cc2ccc(C(=O)NCCc3ccccn3)cc2)c2ccccc12 [Example 175]
pIC50: ≤ 6.00
--
COMPOUND: O=C(O)Cc1cnc(Cc2ccc(C(=O)Nc3ccc(Cl)c(Cl)c3)cc2)c2ccccc12 [Example 158]
pIC50: > 7.30
--
COMPOUND: Cc1ccc(C(=O)Nc2ccc(C(=O)c3ncc(CC(=O)O)c4ccccc34)cc2)cc1Cl [Example 99]
pIC50: > 7.30
--
COMPOUND: O=C(O)Cc1cnc(Cc2ccc(C(=O)NCCc3cccc(Cl)c3F)cc2)c2ccccc12 [Example 244]
pIC50: > 7.30
--
COMPOUND: O=C(O)Cc1cnc(Cc2ccc(C(=O)NCCC3CC3)cc2)c2ccccc12 [Example 239]
pIC50: 6.30 to 7.30
--
COMPOUND: O=C(O)Cc1cnc(C(=O)c2ccc(NC(=O)c3c(F)cccc3Cl)cc2)c2ccccc12 [Example 36]
pIC50: ≤ 6.00
--
COMPOUND: O=C(O)Cc1cnc(Cc2ccc(C(=O)NCCc3ccc(F)cc3)cc2)c2ccccc12 [Example 200]
pIC50: 6.30 to 7.30
--
COMPOUND: O=C(O)Cc1cnc(C(=O)c2ccc(NC(=O)CC3CCCCC3)cc2)c2ccccc12 [Example 21]
pIC50: 6.30 to 7.30

Value sought for every listed compound: pIC50.
1. O=C(O)Cc1cnc(C(=O)c2ccc(NC(=O)c3ccc4cnccc4n3)cc2)c2ccccc12 [Example 124]
2. O=C(O)Cc1cnc(C(=O)c2ccc(C(=O)Nc3ccc(Cl)c(Cl)c3)cc2)c2ccccc12 [Example 136]
3. O=C(O)Cc1cnc(C(=O)c2ccc(NC(=O)C3CCCCC3)cc2)c2ccccc12 [Example 76]
4. COc1ccc(C(=O)Nc2ccc(C(=O)c3ncc(CC(=O)O)c4ccccc34)cc2)cc1OC [Example 106]
5. O=C(O)Cc1cnc(C(=O)c2ccc(NC(=O)c3cccc(Cl)c3Cl)cc2)c2ccccc12 [Example 30]

**Result**
6.00 to 6.30
> 7.30
6.30 to 7.30
6.30 to 7.30
6.00 to 6.30

Value sought for every listed compound: pIC50.
1. O=C(O)Cc1cnc(C(=O)c2ccc(NC(=O)C3(c4ccc(Cl)cc4)CCCC3)cc2)c2ccccc12 [Example 59]
2. O=C(O)Cc1cnc(C(=O)c2ccc(NC(=O)c3c(Cl)cc(Cl)cc3Cl)cc2)c2ccccc12 [Example 48]

**Result**
1. 6.30 to 7.30
2. ≤ 6.00

====

Molecular target: CRTH2 (KB8 cells) (Homo sapiens, UniProt Q9Y5Y4)
Construct: host or cells: KB8 cells (human CRTH2 expression cell)
Sequence (Q9Y5Y4 1-395): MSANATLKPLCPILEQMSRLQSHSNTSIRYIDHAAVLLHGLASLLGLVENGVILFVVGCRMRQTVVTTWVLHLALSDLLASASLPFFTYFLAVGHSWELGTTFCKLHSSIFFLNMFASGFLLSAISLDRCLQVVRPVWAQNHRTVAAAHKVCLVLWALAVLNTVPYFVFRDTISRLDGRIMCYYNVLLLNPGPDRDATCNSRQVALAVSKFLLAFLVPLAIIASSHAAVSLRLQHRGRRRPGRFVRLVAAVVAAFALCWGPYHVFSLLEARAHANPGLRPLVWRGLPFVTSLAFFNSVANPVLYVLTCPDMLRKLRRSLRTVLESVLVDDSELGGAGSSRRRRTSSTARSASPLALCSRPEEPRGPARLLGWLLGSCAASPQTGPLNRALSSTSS
Experiment: CRTH2 antagonist test (PGD2-induced intracellular calcium ion concentration increase in KB8 cells)
Type: cell-based
Conditions: PGD2 final concentration 100 nM, Fluo-4-AM fluorescence, read-out: antagonist activity (IC50 value, inhibition of calcium ion concentration increase)
METRIC_NAME: IC50

Example compounds with recorded IC50:
COMPOUND: CNC(=O)c1ccc(Cc2ncc(CC(=O)O)c3ccccc23)cc1 [Example 220]
TARGET_DESC: CRTH2 (KB8 cells) (Homo sapiens, UniProt Q9Y5Y4)
IC50: ≥ 1000 nM

COMPOUND: CC(C)Oc1ccc(C(=O)Nc2ccc(C(=O)c3ncc(CC(=O)O)c4ccccc34)cc2)cc1 [Example 115]
TARGET_DESC: CRTH2 (KB8 cells) (Homo sapiens, UniProt Q9Y5Y4)
IC50: < 50 nM

COMPOUND: O=C(O)Cc1cnc(C(=O)c2ccc(NC(=O)C3(c4ccc(Cl)c(Cl)c4)CC3)cc2)c2ccccc12 [Example 5]
TARGET_DESC: CRTH2 (KB8 cells) (Homo sapiens, UniProt Q9Y5Y4)
IC50: 50 to 500 nM

COMPOUND: O=C(O)Cc1cnc(Cc2ccc(C(=O)Nc3ccc(Cl)cc3)cc2)c2ccccc12 [Example 159]
TARGET_DESC: CRTH2 (KB8 cells) (Homo sapiens, UniProt Q9Y5Y4)
IC50: < 50 nM

Value sought for every listed compound: IC50.
1. O=C(O)Cc1cnc(Cc2ccc(OCCOc3ccc(Cl)cc3)cc2)c2ccccc12 [Example 151]
2. O=C(O)Cc1cnc(Cc2ccc(C(=O)NCCc3ccccc3F)cc2)c2ccccc12 [Example 181]

**Result**
1: 50 to 500 nM; 2: 50 to 500 nM

Value sought for every listed compound: IC50.
1. O=C(O)Cc1cnc(Cc2ccc(C(=O)NCCc3c[nH]c4ccccc34)cc2)c2ccccc12 [Example 179]
2. O=C(O)Cc1cnc(Cc2ccc(C(=O)NCCc3ccc(Cl)cc3)cc2)c2ccc(F)cc12 [Example 253]
3. O=C(O)Cc1cnc(C(=O)c2ccc(NC(=O)CC34CC5CC(CC(C5)C3)C4)cc2)c2ccccc12 [Example 53]
4. COc1cc(CCNC(=O)c2ccc(Cc3ncc(CC(=O)O)c4ccccc34)cc2)cc(OC)c1O [Example 209]

**Result**
< 50 nM
< 50 nM
50 to 500 nM
≥ 1000 nM

**Query** Could you share which IC50 value was measured for O=C(O)Cc1cnc(Cc2ccc(C(=O)NCCc3nc4ccccc4[nH]3)cc2)c2ccccc12 [Example 248] ?
**Result** 50 to 500 nM
